- study-target: P-gp (Homo sapiens, UniProt P08183)
- Sequence (P08183 whole entry): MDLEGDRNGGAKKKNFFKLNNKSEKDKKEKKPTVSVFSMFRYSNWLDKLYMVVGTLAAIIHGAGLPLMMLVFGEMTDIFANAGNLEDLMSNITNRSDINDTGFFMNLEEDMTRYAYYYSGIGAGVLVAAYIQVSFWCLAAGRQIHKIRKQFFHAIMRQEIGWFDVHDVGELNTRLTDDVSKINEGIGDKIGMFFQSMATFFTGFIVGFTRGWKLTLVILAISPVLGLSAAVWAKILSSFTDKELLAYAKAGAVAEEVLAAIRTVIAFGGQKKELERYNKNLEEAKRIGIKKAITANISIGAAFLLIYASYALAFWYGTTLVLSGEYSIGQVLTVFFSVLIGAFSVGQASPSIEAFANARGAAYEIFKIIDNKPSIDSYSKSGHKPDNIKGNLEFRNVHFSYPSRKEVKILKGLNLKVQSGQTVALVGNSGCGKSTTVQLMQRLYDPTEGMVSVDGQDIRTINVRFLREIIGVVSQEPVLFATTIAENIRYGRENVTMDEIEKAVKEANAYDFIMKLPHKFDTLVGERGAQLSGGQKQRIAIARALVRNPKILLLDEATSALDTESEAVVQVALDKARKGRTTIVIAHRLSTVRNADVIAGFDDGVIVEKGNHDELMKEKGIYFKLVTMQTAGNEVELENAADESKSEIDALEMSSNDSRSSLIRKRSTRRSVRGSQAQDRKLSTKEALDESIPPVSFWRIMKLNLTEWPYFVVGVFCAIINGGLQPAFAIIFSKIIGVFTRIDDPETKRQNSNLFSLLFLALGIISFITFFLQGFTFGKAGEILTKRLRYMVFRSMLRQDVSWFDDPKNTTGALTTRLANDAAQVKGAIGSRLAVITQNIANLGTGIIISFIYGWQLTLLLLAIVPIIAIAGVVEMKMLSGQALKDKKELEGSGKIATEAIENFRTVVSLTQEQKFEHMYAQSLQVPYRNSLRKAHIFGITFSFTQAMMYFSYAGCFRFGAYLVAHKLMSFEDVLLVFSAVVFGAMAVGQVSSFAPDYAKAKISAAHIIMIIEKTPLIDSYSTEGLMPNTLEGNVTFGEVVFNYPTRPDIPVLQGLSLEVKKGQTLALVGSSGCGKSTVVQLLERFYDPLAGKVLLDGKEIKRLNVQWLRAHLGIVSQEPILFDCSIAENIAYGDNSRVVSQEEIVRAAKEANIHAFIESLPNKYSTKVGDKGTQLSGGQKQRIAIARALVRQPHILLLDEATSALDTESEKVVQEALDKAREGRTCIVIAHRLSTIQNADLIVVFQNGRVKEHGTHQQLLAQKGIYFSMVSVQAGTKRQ
- experiment-summary: in vitro
- conditions: MDCK-MDR1
recorded-metric: Papp B→A at 150 min (×10⁻⁶ cm/s)

CC[C@H]1OC(=O)[C@H](C)[C@@H](O[C@H]2C[C@@](C)(OC)[C@@H](O)[C@H](C)O2)[C@H](C)[C@@H](O[C@@H]2O[C@H](C)C[C@H](N(C)C)[C@H]2O)[C@](C)(O)C[C@@H](C)C(=O)[C@H](C)[C@@H](O)[C@]1(C)O [[^14C] erythromycin, erythromycin]	10.6

###

- study-target: MRP2 (Homo sapiens)
- experiment-summary: in vitro
recorded-metric: Papp A→B at 150 min (×10⁻⁶ cm/s)

CC[C@H]1OC(=O)[C@H](C)[C@@H](O[C@H]2C[C@@](C)(OC)[C@@H](O)[C@H](C)O2)[C@H](C)[C@@H](O[C@@H]2O[C@H](C)C[C@H](N(C)C)[C@H]2O)[C@](C)(O)C[C@@H](C)C(=O)[C@H](C)[C@@H](O)[C@]1(C)O [[^14C] erythromycin, erythromycin]	3.76

###

- study-target: MRP2 (Homo sapiens, UniProt Q92887)
- Sequence (Q92887 whole entry): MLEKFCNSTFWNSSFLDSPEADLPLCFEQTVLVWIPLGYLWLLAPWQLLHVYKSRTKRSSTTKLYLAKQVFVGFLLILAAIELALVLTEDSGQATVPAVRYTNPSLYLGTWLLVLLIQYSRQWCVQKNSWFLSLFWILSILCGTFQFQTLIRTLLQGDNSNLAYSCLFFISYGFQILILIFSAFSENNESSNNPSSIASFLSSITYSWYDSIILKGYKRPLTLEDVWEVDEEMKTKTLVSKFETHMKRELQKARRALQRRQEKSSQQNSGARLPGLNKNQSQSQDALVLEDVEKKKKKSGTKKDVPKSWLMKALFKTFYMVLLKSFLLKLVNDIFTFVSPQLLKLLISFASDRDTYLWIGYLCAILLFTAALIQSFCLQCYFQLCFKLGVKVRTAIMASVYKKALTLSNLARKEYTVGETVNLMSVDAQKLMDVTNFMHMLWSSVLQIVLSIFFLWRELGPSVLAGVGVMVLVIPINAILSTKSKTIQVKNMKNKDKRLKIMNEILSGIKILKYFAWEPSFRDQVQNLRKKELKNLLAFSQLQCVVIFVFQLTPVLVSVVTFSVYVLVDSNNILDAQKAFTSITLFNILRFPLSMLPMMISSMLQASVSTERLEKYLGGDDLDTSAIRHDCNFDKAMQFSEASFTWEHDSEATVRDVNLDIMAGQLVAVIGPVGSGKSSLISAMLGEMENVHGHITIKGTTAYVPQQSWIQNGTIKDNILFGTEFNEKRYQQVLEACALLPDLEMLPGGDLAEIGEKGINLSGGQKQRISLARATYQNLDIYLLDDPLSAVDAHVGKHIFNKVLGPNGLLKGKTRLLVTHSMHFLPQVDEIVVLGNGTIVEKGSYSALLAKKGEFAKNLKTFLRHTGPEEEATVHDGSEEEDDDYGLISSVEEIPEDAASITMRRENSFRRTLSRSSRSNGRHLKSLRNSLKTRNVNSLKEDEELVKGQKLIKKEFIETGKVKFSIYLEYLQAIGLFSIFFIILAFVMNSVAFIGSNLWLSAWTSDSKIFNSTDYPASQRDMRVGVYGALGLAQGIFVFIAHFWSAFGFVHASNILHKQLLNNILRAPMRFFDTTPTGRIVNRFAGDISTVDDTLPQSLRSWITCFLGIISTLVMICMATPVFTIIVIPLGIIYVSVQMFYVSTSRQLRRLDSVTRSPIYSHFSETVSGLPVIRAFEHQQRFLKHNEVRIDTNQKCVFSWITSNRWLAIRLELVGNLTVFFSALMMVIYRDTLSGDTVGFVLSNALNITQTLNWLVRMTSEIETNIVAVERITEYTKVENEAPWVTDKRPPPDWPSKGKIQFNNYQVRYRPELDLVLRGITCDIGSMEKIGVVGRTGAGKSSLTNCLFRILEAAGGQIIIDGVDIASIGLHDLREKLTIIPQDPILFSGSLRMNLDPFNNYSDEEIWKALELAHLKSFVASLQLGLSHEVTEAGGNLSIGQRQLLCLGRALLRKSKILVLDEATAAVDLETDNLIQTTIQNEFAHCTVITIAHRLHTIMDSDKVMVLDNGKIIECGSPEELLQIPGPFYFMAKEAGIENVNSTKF
- experiment-summary: in vitro
recorded-metric: efflux ratio at 150 min

CC[C@H]1OC(=O)[C@H](C)[C@@H](O[C@H]2C[C@@](C)(OC)[C@@H](O)[C@H](C)O2)[C@H](C)[C@@H](O[C@@H]2O[C@H](C)C[C@H](N(C)C)[C@H]2O)[C@](C)(O)C[C@@H](C)C(=O)[C@H](C)[C@@H](O)[C@]1(C)O [[^14C] erythromycin, erythromycin]	4.93

###

- study-target: MRP2 (Homo sapiens)
recorded-metric: IC50 (µM)

CO/N=C1\CN(c2nc3c(cc2F)c(=O)c(C(=O)O)cn3C2CC2)CC1CN (stereo not shown)	16
